ASSAYED_TARGET: T1, human IgG3 (human, UniProt P01860-1 1-377)
T1 construct: Calbiochem; plasma IgG3 in anisotropy studies, myeloma-derived (cat. 400124) in batch/column studies; also called hIgG3
T1 sequence (P01860 other isoform, or with tags, fused parts or gaps): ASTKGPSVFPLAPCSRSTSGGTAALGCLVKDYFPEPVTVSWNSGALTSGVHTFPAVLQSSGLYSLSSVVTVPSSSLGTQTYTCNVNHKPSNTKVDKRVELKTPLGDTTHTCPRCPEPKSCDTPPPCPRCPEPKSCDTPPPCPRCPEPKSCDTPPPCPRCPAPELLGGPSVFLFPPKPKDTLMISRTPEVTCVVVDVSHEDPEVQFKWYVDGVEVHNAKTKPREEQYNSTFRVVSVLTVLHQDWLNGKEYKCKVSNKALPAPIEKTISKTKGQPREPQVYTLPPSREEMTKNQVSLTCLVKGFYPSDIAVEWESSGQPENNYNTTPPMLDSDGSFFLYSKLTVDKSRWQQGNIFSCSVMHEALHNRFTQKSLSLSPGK
TEST_NAME: anisotropy; pH 4.0 + salt
Measured Kd of individual entries
# value in nM; strip the unit string

Field: example entries. Status: answers known.
BINDER	ENDPOINT_RESULT
Ac-AGSYWCKIWDVCPQSPGPEGGGK-NH2 (not fully specified (bridges); printed as Ac-AGSYWCKIWDVCPQSPGPEGGGK-NH2; cysteine pairing not given here, immobilised in batch assays) [DX392]	600
Ac-AGYWYCWFPDRPECPLYPGPEGGGK-NH2 (not fully specified (bridges); printed as Ac-AGYWYCWFPDRPECPLYPGPEGGGK-NH2; cysteine pairing not given here) [DX413]	1100
Ac-AGPHNCDDHYWYCKWFPGPEGGGK-NH2 (not fully specified (bridges); printed as Ac-AGPHNCDDHYWYCKWFPGPEGGGK-NH2; cysteine pairing not given here, immobilised in batch assays) [DX389]	1800

Moving on to the next binder.
Qu. Fill in: Kd of Ac-AGAATCSTSYWYYQWFCTDSPGPEGGGK-NH2 (not fully specified (bridges); printed as Ac-AGAATCSTSYWYYQWFCTDSPGPEGGGK-NH2; cysteine pairing not given here, immobilised in batch assays) [DX398] is ___
Ans. 40
